Cited source: paper PMC11978679

property_label: melting point

INSERT INTO assay_data (input_smiles, property_label, test_value) VALUES
  ('O=C(C=Cc1ccccc1)c1ccc(NC(=O)c2cn(-c3ccccc3)nc2-c2ccccc2)cc1', 'melting point', '160 to 161 °C'),
  ('O=C(/C=C/c1cccs1)c1ccc(NC(=O)c2cn(-c3ccccc3)nc2-c2ccccc2)cc1', 'melting point', '210 to 211 °C'),
  ('COc1ccc(/C=C/C(=O)c2ccc(NC(=O)c3cn(-c4ccccc4)nc3-c3ccccc3)cc2)cc1', 'melting point', '174 to 175 °C'),
  ('O=C(/C=C/c1cccnc1)c1ccc(NC(=O)c2cn(-c3ccccc3)nc2-c2ccccc2)cc1', 'melting point', '198 to 199 °C'),
  ('O=C(/C=C/c1ccc(Cl)c(Cl)c1)c1ccc(NC(=O)c2cn(-c3ccccc3)nc2-c2ccccc2)cc1', 'melting point', '200 to 201 °C'),
  ('O=C(/C=C/c1ccc2c(c1)OCO2)c1ccc(NC(=O)c2cn(-c3ccccc3)nc2-c2ccccc2)cc1', 'melting point', '182 to 183 °C'),
  ('CC(=O)c1ccc(NC(=O)c2cn(-c3ccccc3)nc2-c2ccccc2)cc1', 'melting point', '149 to 150 °C');
